assay: Hygroscopicity experiment (DVS); type: physicochemical; conditions: Cycle 2, target relative humidity 10.0%, 25° C.
measuredQuantity: % percentage of mass change, Desorption (%)
Response body: numeric value in %, unit text excluded.

In plain terms, CCS(=O)(=O)O.N#Cc1cc2n(CC(=O)Nc3ccc(F)cn3)c(=O)c3ccc(C(F)(F)F)nc3n2n1 [Ethanesulfonate (crystal form A)] has a documented % percentage of mass change, Desorption of 0.035

In plain terms, CS(=O)(=O)O.N#Cc1cc2n(CC(=O)Nc3ccc(F)cn3)c(=O)c3ccc(C(F)(F)F)nc3n2n1 [Methanesulfonate (crystal form A)] has a documented % percentage of mass change, Desorption of 0.014

In plain terms, Br.N#Cc1cc2n(CC(=O)Nc3ccc(F)cn3)c(=O)c3ccc(C(F)(F)F)nc3n2n1 [Hydrobromide (crystal form B)] has a documented % percentage of mass change, Desorption of 0.124

In plain terms, Cl.N#Cc1cc2n(CC(=O)Nc3ccc(F)cn3)c(=O)c3ccc(C(F)(F)F)nc3n2n1 [Hydrochloride (crystal form A)] has a documented % percentage of mass change, Desorption of 0.098

In plain terms, N#Cc1cc2n(CC(=O)Nc3ccc(F)cn3)c(=O)c3ccc(C(F)(F)F)nc3n2n1.O=S(=O)(O)O [Sulfate (crystal form B)] has a documented % percentage of mass change, Desorption of 0.065

---

experiment: Hygroscopicity experiment (DVS); format: physicochemical; settings: Cycle 1, target relative humidity 95.0%, 25° C.
Criterion: % percentage of mass change, Desorption strictly under 2%. Met: Yes. Not met: No.

Does the reported % percentage of mass change, Desorption of the following compound sit strictly below 2%? Cl.N#Cc1cc2n(CC(=O)Nc3ccc(F)cn3)c(=O)c3ccc(C(F)(F)F)nc3n2n1 [Hydrochloride (crystal form A)]
No

Does the reported % percentage of mass change, Desorption of the following compound sit strictly below 2%? N#Cc1cc2n(CC(=O)Nc3ccc(F)cn3)c(=O)c3ccc(C(F)(F)F)nc3n2n1.O=S(=O)(O)O [Sulfate (crystal form B)]
Yes

Does the reported % percentage of mass change, Desorption of the following compound sit strictly below 2%? Br.N#Cc1cc2n(CC(=O)Nc3ccc(F)cn3)c(=O)c3ccc(C(F)(F)F)nc3n2n1 [Hydrobromide (crystal form B)]
No

Does the reported % percentage of mass change, Desorption of the following compound sit strictly below 2%? CCS(=O)(=O)O.N#Cc1cc2n(CC(=O)Nc3ccc(F)cn3)c(=O)c3ccc(C(F)(F)F)nc3n2n1 [Ethanesulfonate (crystal form A)]
Yes

Does the reported % percentage of mass change, Desorption of the following compound sit strictly below 2%? CS(=O)(=O)O.N#Cc1cc2n(CC(=O)Nc3ccc(F)cn3)c(=O)c3ccc(C(F)(F)F)nc3n2n1 [Methanesulfonate (crystal form A)]
Yes

---

test: Hygroscopicity experiment (DVS); assay type: physicochemical; conditions: Cycle 1, target relative humidity 50.0%, 25° C.
Criterion: % percentage of mass change, Desorption strictly under 0.3%. Met: True. Not met: False.

Does the reported % percentage of mass change, Desorption of the following compound sit strictly below 0.3%? CS(=O)(=O)O.N#Cc1cc2n(CC(=O)Nc3ccc(F)cn3)c(=O)c3ccc(C(F)(F)F)nc3n2n1 [Methanesulfonate (crystal form A)]
True

Does the reported % percentage of mass change, Desorption of the following compound sit strictly below 0.3%? Br.N#Cc1cc2n(CC(=O)Nc3ccc(F)cn3)c(=O)c3ccc(C(F)(F)F)nc3n2n1 [Hydrobromide (crystal form B)]
False

Does the reported % percentage of mass change, Desorption of the following compound sit strictly below 0.3%? CCS(=O)(=O)O.N#Cc1cc2n(CC(=O)Nc3ccc(F)cn3)c(=O)c3ccc(C(F)(F)F)nc3n2n1 [Ethanesulfonate (crystal form A)]
True

Does the reported % percentage of mass change, Desorption of the following compound sit strictly below 0.3%? Cl.N#Cc1cc2n(CC(=O)Nc3ccc(F)cn3)c(=O)c3ccc(C(F)(F)F)nc3n2n1 [Hydrochloride (crystal form A)]
False

Does the reported % percentage of mass change, Desorption of the following compound sit strictly below 0.3%? N#Cc1cc2n(CC(=O)Nc3ccc(F)cn3)c(=O)c3ccc(C(F)(F)F)nc3n2n1.O=S(=O)(O)O [Sulfate (crystal form B)]
False
